# Target Entity: Cathepsin S (Homo sapiens, UniProt P25774)
# Sequence (P25774 whole entry): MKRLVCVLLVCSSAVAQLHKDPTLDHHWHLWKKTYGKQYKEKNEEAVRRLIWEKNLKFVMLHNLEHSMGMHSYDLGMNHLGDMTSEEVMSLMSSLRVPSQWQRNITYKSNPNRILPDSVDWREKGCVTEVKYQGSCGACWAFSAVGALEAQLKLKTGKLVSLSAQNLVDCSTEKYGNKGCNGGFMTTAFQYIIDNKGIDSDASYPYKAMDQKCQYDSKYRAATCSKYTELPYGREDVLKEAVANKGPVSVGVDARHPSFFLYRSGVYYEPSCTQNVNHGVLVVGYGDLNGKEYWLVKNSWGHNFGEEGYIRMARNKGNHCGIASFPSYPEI
# Protocol Text: Inhibition of recombinant human cathepsin S
pIC50: −log10 of the molar value.

Structure Notation	pIC50
O=C(N[C@@H](Cc1ccccc1)C(=O)N[C@@H]1C(=O)N[C@@H]1Oc1ccccc1)OCc1ccccc1	> 10.00
